# System: angiogenesis of the chick CAM
# ASSAY_REMARKS: CAM angiogenesis inhibition, various steroids alone or with DS4152
# Type: in vivo
# APPLIED_CONDITIONS: in the presence of 10 ng of DS4152
ID50, used in combination with DS4152 listing for selected molecules.
Answer format: numeric, μg/embryo implied, no suffix.

• C[C@H]1C[C@H]2[C@@H]3CCC4=CC(=O)C=C[C@]4(C)[C@@]3(F)[C@@H](O)C[C@]2(C)[C@@]1(O)C(=O)CO = 0.05
• C[C@]1(O)CC[C@H]2[C@@H]3CCC4=CC(=O)CC[C@]4(C)[C@@]3(F)[C@@H](O)C[C@@]21C = 0.12
• CC(=O)[C@H]1CC[C@H]2[C@@H]3CCC4=CC(=O)CC[C@]4(C)[C@H]3CC[C@]12C = 0.49

// next entry
Problem: Find the recorded ID50, used in combination with DS4152 belonging to `C[C@H]1C[C@@H]2[C@H]([C@@H](O)C[C@@]3(C)[C@H]2CC[C@]3(O)C(=O)CO)[C@@]2(C)C=CC(=O)C=C12` and report it.
Result: 0.03
